# Lookup of reported IC50 keyed by entry
target: GSK-3β (Homo sapiens); test: GSK3 scintillation proximity assay (SPA) kinase assay; assay type: biochemical; details: 20 nM kinase, 2.5 uM ATP, biotinylated glycogen synthase peptide, 40 minutes at room temperature; -log IC50 in Molar; read-out: GSK-3 pIC50 (converted)
Sequence (P49841 whole entry, species assumed): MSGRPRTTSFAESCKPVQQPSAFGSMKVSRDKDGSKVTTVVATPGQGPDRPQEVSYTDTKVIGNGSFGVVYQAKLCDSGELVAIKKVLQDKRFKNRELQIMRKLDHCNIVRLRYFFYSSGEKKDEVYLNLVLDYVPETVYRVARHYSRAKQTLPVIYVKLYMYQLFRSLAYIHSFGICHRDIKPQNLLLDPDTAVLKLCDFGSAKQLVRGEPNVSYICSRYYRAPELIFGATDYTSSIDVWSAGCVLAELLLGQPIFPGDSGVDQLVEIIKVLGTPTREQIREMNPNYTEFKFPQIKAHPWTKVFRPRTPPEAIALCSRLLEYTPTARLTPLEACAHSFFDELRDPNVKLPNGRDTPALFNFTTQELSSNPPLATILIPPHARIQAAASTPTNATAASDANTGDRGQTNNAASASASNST

Study these solved cases before continuing.
compound	value type	result
OCc1ccc(/C=N/Nc2ncnc3c2cnn3-c2ccccc2)o1 [Example 51]	IC50	1000 to 10000 nM
NS(=O)(=O)c1ccc(/C=N/Nc2ncnc3c2cnn3-c2ccccc2)cc1 [Example 20]	IC50	< 100 nM

Would you mind telling me what IC50 value was observed for COCCN1CCN(C(=O)c2ccc(/C=N/Nc3ncnc4c3cnn4-c3ccccc3)cc2)CC1 [Example 36] ?
100 to 1000 nM

Requested read-out: IC50. Entry: NCCCNC(=O)c1ccc(/C=N/Nc2ncnc3c2cnn3-c2ccccc2)cc1 [Example 32]
100 to 1000 nM

Any idea what its IC50 is? The compound is C(=N\Nc1ncnc2c1cnn2-c1ccccc1)/c1cnc2ccccc2c1 [Example 4]
100 to 1000 nM

Source of measurements: patent US20050267133A1
